Quick list: pKi per entry.
Target: AChE (Electrophorus electricus) (Electrophorus electricus, UniProt O42275)
Sequence (O42275 24-633): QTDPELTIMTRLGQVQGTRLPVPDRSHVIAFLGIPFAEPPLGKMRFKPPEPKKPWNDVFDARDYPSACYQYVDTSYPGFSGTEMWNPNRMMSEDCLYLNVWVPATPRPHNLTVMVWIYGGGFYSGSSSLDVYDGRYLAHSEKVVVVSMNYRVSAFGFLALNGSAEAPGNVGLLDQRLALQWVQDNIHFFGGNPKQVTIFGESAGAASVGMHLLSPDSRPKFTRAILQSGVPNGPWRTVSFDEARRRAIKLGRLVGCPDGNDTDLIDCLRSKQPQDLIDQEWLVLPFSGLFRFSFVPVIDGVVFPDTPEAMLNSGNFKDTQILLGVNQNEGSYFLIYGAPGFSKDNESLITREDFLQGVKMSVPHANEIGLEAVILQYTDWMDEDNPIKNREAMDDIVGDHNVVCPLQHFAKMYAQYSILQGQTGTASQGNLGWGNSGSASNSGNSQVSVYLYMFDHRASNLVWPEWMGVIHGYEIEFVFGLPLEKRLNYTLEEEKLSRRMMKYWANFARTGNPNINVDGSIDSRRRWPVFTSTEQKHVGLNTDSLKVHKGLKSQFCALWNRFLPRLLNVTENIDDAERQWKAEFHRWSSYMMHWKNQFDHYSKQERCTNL
Assay: AChE inhibition, Ellman's assay
Assay type: biochemical
Details: binding to free enzyme; read-out: Kia AChE
pKi: −log10 of the molar value.

[
  {
    "molecule": "COc1ccc(CCOCCCCCCN2C[C@H](O)[C@@H](O)[C@H](O)[C@H]2CO)cc1OC [Compound 11e]",
    "pKi": 5.03
  },
  {
    "molecule": "OC[C@@H]1[C@@H](O)[C@H](O)[C@@H](O)CN1CCCCCCOCCc1ccc2c(c1)OCO2 [Compound 11g]",
    "pKi": 4.25
  },
  {
    "molecule": "COc1cc(CCOCCCCCCN2C[C@H](O)[C@@H](O)[C@H](O)[C@H]2CO)ccc1O [Compound 11f]",
    "pKi": 4.77
  }
]

* * *

Biological target: AChE (Electrophorus electricus) (Electrophorus electricus, UniProt O42275)
Assay: AChE inhibition, Ellman's assay
Assay type: biochemical
Experimental: For both families of enzymes used herein (glycosidases and cholinesterases), stock solutions of the inhibitors were prepared in DMSO; DMSO content was kept at 5% (V/V) for glycosidases and 1.25% (V/V) for cholinesterases. […] For strong inhibitors, the mode of inhibition was determined using the Cornish–Bowden method, which involves the use of two different plots: 1/v vs. [I] […] Data are expressed as the mean ± SD. […]
pIC50: −log10 of the molar value.

[
  {
    "compound": "OC[C@H]1NC[C@H](O)[C@@H](O)[C@@H]1O [Compound 1-DNJ, 1-deoxynojirimycin, reference compound]",
    "pIC50": "< 4.00"
  }
]

* * *

Biological target: BuChE (equine serum) (Equus caballus, UniProt P81908)
Construct: 0.11 mM for BuChE (equine serum); from tissue; host or cells: equine serum
Sequence (P81908 whole entry): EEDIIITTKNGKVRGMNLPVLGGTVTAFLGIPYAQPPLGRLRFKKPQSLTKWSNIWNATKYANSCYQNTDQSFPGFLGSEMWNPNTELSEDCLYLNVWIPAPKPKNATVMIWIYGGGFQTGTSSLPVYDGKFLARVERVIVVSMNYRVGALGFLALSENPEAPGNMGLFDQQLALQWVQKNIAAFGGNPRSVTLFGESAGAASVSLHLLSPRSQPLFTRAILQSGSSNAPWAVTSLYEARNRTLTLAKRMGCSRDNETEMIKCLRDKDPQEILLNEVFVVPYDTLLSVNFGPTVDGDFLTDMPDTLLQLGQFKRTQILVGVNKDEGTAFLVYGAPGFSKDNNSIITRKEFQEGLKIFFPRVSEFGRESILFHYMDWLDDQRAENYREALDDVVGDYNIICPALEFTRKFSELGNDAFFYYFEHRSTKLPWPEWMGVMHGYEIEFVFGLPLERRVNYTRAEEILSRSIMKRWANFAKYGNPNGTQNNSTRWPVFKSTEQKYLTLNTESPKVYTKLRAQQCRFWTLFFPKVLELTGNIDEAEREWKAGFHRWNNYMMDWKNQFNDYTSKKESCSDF
Test: BuChE inhibition, Ellman's assay
Type: biochemical
readout.name: Ki (µM)

[
  {
    "compound": "OC[C@H]1NC[C@H](O)[C@@H](O)[C@@H]1O [Compound 1-DNJ, 1-deoxynojirimycin, reference compound]",
    "readout.name": "Ki",
    "obs.value": 16
  }
]

* * *

Target: BuChE (equine serum) (Equus caballus, UniProt P81908)
Construct: 0.11 mM for BuChE (equine serum); from tissue; host or cells: equine serum
Test: BuChE inhibition, Ellman's assay
Type: biochemical
Conditions: binding to free enzyme; read-out: Kia BuChE
pKi: −log10 of the molar value.
readout.name: pKi

[
  {
    "compound": "COc1ccc(CCOCCCCCCN2C[C@H](O)[C@@H](O)[C@H](O)[C@H]2CO)cc1OC [Compound 11e]",
    "obs.value": 5.85
  },
  {
    "compound": "COc1cc(CCOCCCCCCN2C[C@H](O)[C@@H](O)[C@H](O)[C@H]2CO)ccc1O [Compound 11f]",
    "obs.value": 5.82
  },
  {
    "compound": "OC[C@@H]1[C@@H](O)[C@H](O)[C@@H](O)CN1CCCCCCOCCc1ccc2c(c1)OCO2 [Compound 11g]",
    "obs.value": 5.04
  }
]

* * *

Molecular target: β-glucosidase (almonds)
Assay: β-Glucosidase inhibition (p-nitrophenyl glycoside substrate)
Conditions: binding to free enzyme; read-out: Kia β-Glucosidase

[
  {
    "molecule": "OC[C@@H]1[C@@H](O)[C@H](O)[C@@H](O)CN1CCCCCCOCCc1ccc(O)c(O)c1 [Compound 11d]",
    "system": "β-glucosidase (almonds)",
    "Ki, µM": 11
  },
  {
    "molecule": "OC[C@@H]1[C@@H](O)[C@H](O)[C@@H](O)CN1CCCCCCOCCc1ccc(O)cc1 [Compound 11b]",
    "system": "β-glucosidase (almonds)",
    "Ki, µM": 17
  },
  {
    "molecule": "OC[C@@H]1[C@@H](O)[C@H](O)[C@@H](O)CN1CCCCCCOCCc1ccc2c(c1)OCO2 [Compound 11g]",
    "system": "β-glucosidase (almonds)",
    "Ki, µM": 9
  },
  {
    "molecule": "COc1ccc(CCOCCCCCCN2C[C@H](O)[C@@H](O)[C@H](O)[C@H]2CO)cc1 [Compound 11c]",
    "system": "β-glucosidase (almonds)",
    "Ki, µM": 4.5
  },
  {
    "molecule": "COc1cc(CCOCCCCCCN2C[C@H](O)[C@@H](O)[C@H](O)[C@H]2CO)ccc1O [Compound 11f]",
    "system": "β-glucosidase (almonds)",
    "Ki, µM": 9.6
  },
  {
    "molecule": "OC[C@@H]1[C@@H](O)[C@H](O)[C@@H](O)CN1CCCCCOCCc1ccccc1 [Compound 12a]",
    "system": "β-glucosidase (almonds)",
    "Ki, µM": 23
  },
  {
    "molecule": "COc1ccc(CCOCCCCCN2C[C@H](O)[C@@H](O)[C@H](O)[C@H]2CO)cc1 [Compound 12c]",
    "system": "β-glucosidase (almonds)",
    "Ki, µM": 14
  },
  {
    "molecule": "OC[C@@H]1[C@@H](O)[C@H](O)[C@@H](O)CN1CCCCCCOCCc1ccccc1 [Compound 11a]",
    "system": "β-glucosidase (almonds)",
    "Ki, µM": 6.5
  },
  {
    "molecule": "COc1ccc(CCOCCCCCCN2C[C@H](O)[C@@H](O)[C@H](O)[C@H]2CO)cc1OC [Compound 11e]",
    "system": "β-glucosidase (almonds)",
    "Ki, µM": 15
  }
]

* * *

Target: AChE (Electrophorus electricus) (Electrophorus electricus, UniProt O42275)
Assay: AChE inhibition, Ellman's assay
Type: biochemical
Settings: Electrophorus electricus, pH 8.0; read-out: IC50 AChE
pIC50: −log10 of the molar value.
pIC50 values for the molecules below.

[
  {
    "molecule": "COc1ccc(CCOCCCCCCN2C[C@H](O)[C@@H](O)[C@H](O)[C@H]2CO)cc1OC [Compound 11e]",
    "system": "AChE (Electrophorus electricus) (Electrophorus electricus, UniProt O42275)",
    "pIC50": 5.24
  },
  {
    "molecule": "COc1ccc(CCOCCCCCN2C[C@H](O)[C@@H](O)[C@H](O)[C@H]2CO)cc1 [Compound 12c]",
    "system": "AChE (Electrophorus electricus) (Electrophorus electricus, UniProt O42275)",
    "pIC50": "< 4.00"
  },
  {
    "molecule": "OC[C@@H]1[C@@H](O)[C@H](O)[C@@H](O)CN1CCCCCCOCCc1ccc(O)cc1 [Compound 11b]",
    "system": "AChE (Electrophorus electricus) (Electrophorus electricus, UniProt O42275)",
    "pIC50": "< 4.00"
  },
  {
    "molecule": "OC[C@@H]1[C@@H](O)[C@H](O)[C@@H](O)CN1CCCCCCOCCc1ccc2c(c1)OCO2 [Compound 11g]",
    "system": "AChE (Electrophorus electricus) (Electrophorus electricus, UniProt O42275)",
    "pIC50": 4.32
  },
  {
    "molecule": "OC[C@@H]1[C@@H](O)[C@H](O)[C@@H](O)CN1CCCCCCOCCc1ccc(O)c(O)c1 [Compound 11d]",
    "system": "AChE (Electrophorus electricus) (Electrophorus electricus, UniProt O42275)",
    "pIC50": "< 4.00"
  },
  {
    "molecule": "COc1ccc(CCOCCCCCCN2C[C@H](O)[C@@H](O)[C@H](O)[C@H]2CO)cc1 [Compound 11c]",
    "system": "AChE (Electrophorus electricus) (Electrophorus electricus, UniProt O42275)",
    "pIC50": "< 4.00"
  },
  {
    "molecule": "OC[C@@H]1[C@@H](O)[C@H](O)[C@@H](O)CN1CCCCCOCCc1ccccc1 [Compound 12a]",
    "system": "AChE (Electrophorus electricus) (Electrophorus electricus, UniProt O42275)",
    "pIC50": "< 4.00"
  },
  {
    "molecule": "OC[C@@H]1[C@@H](O)[C@H](O)[C@@H](O)CN1CCCCCCOCCc1ccccc1 [Compound 11a]",
    "system": "AChE (Electrophorus electricus) (Electrophorus electricus, UniProt O42275)",
    "pIC50": "< 4.00"
  },
  {
    "molecule": "OC[C@@H]1[C@@H](O)[C@H](O)[C@@H](O)CN1CCCCCOCCc1ccc(O)c(O)c1 [Compound 12d]",
    "system": "AChE (Electrophorus electricus) (Electrophorus electricus, UniProt O42275)",
    "pIC50": "< 4.00"
  },
  {
    "molecule": "COc1cc(CCOCCCCCCN2C[C@H](O)[C@@H](O)[C@H](O)[C@H]2CO)ccc1O [Compound 11f]",
    "system": "AChE (Electrophorus electricus) (Electrophorus electricus, UniProt O42275)",
    "pIC50": 5.14
  }
]
